# target under test: Amiloride-sensitive sodium channel (Canis familiaris)
# protocol text: Inhibition of dog bronchi prototypical epithelial sodium channel by electrophysiological assay
Quick list: pIC50 per entry.
Scale for pIC50: -log10 of concentration given in mol/L; no unit attached.

Below are worked cases with known answers.
- NC(=NCCCCc1cccc(OCCO)c1)NC(=O)c1nc(Cl)c(N)nc1N: 7.77
- NC(=NCCCCc1ccc(OC2O[C@H](C(=O)O)[C@@H](O)[C@H](O)[C@H]2O)cc1)NC(=O)c1nc(Cl)c(N)nc1N (stereo not given in full): 7.14
- CCCCCCN=C(N)NC(=O)c1nc(Cl)c(N)nc1N: 7.06

# get_value(readout='pIC50', item= NC(=NCCCCCCCCc1ccccc1)NC(=O)c1nc(Cl)c(N)nc1N )
6.32

# get_value(readout='pIC50', item= NC(=NCCCCc1ccc(C(=O)O)cc1)NC(=O)c1nc(Cl)c(N)nc1N )
7.29

# get_value(readout='pIC50', item= NC(=NCCCCc1ccc(CO)cc1)NC(=O)c1nc(Cl)c(N)nc1N )
7.85

# get_value(readout='pIC50', item= NC(=NCCO)NC(=O)c1nc(Cl)c(N)nc1N )
6.97

* * *

# target under test: Amiloride-sensitive sodium channel (Canis familiaris)
# protocol text: Inhibition of dog bronchi prototypical epithelial sodium channel by electrophysiological assay
Quick list: pIC50 per entry.
Scale for pIC50: -log10 of concentration given in mol/L; no unit attached.

Below are worked cases with known answers.
• NC(=NCCCCc1cccc(OCC(O)CO)c1)NC(=O)c1nc(Cl)c(N)nc1N (stereo not drawn) = 7.59
• NC(=NCCc1ccc(O)cc1)NC(=O)c1nc(Cl)c(N)nc1N = 7.21
• NC(=NCCCCCc1ccccc1)NC(=O)c1nc(Cl)c(N)nc1N = 7.17
• COc1ccc(COCCN=C(N)NC(=O)c2nc(Cl)c(N)nc2N)cc1 = 7.39
• COC(=O)c1ccc(CCCCN=C(N)NC(=O)c2nc(Cl)c(N)nc2N)cc1 = 7.66

# get_value(readout='pIC50', item= NC(=NCCCCc1ccc(OCCO)cc1)NC(=O)c1nc(Cl)c(N)nc1N )
8.05

# get_value(readout='pIC50', item= COc1ccc(CCCN=C(N)NC(=O)c2nc(Cl)c(N)nc2N)cc1 )
6.91

# get_value(readout='pIC50', item= NC(=NCCCCc1ccccc1OCC(O)CO)NC(=O)c1nc(Cl)c(N)nc1N (stereo not drawn) )
7.55

# get_value(readout='pIC50', item= NC(=NCCCCc1ccc(OCCCO)cc1)NC(=O)c1nc(Cl)c(N)nc1N )
8.15

# get_value(readout='pIC50', item= NC(=NCCCCc1ccc(N)cc1)NC(=O)c1nc(Cl)c(N)nc1N )
7.68

# get_value(readout='pIC50', item= NC(=NCCCCc1ccccc1OCCO)NC(=O)c1nc(Cl)c(N)nc1N )
7.51

# get_value(readout='pIC50', item= NC(=NCCCCc1cccc(O)c1)NC(=O)c1nc(Cl)c(N)nc1N )
7.70

# get_value(readout='pIC50', item= NC(=NCCCCc1ccccc1)NC(=O)c1nc(Cl)c(N)nc1N )
7.54

# get_value(readout='pIC50', item= NC(=NCCCOc1ccc(O)cc1)NC(=O)c1nc(Cl)c(N)nc1N )
7.49

# get_value(readout='pIC50', item= COc1ccc(CCCCCN=C(N)NC(=O)c2nc(Cl)c(N)nc2N)cc1 )
7.11

# get_value(readout='pIC50', item= COc1ccc(CCCCN=C(N)NC(=O)c2nc(Cl)c(N)nc2N)cc1 )
7.82

# get_value(readout='pIC50', item= CCCCCCCCN=C(N)NC(=O)c1nc(Cl)c(N)nc1N )
6.97

# get_value(readout='pIC50', item= NC(=NCCCc1ccc(O)cc1)NC(=O)c1nc(Cl)c(N)nc1N )
7.06
